Measurement Target: c-Myc template DNA (c-myc quadruplex)
Assay Remarks: Quadruplex binding / stop assay (Taq polymerase arrest, capillary electrophoresis)
Experimental Conditions: read-out: Stop Data c-Myc μM; concentration at which 50% of the DNA was arrested (arrested:full-length 1:1)
Measured Parameter: IC50 (µM)

INSERT INTO assay_data (compound, scale_unit, observed_measurement) VALUES
  ('CN1CCCC1CCNC(=O)c1cn2c3c(c(N4CCC(NC(=O)OC(C)(C)C)CC4)c(F)cc3c1=O)Oc1cc3ccccc3cc1-2 (centres unmarked) [compound 262]', 'µM', 1.75),
  ('CN1CCN(CC(=O)N[C@@H]2CCN(c3c(F)cc4c(=O)c(C(=O)NCCN5CCCC5)cn5c4c3Oc3cc4c(cc3-5)oc3ccccc34)C2)CC1 [compound 505]', 'µM', 0.375),
  ('O=C(O)c1cn2c3cc4c(cc3oc3c(F)c(F)cc(c1=O)c32)c(=O)c1ccccc14 [compound 320]', 'µM', 1),
  ('CC(C)(C)OC(=O)N[C@@H]1CCN(c2c(F)cc3c(=O)c(C(=O)NCCN4CCCC4)cn4c3c2Oc2c-4ccc3ccccc23)C1 [compound 133]', 'µM', 1.75),
  ('CN1CCCC1CCNC(=O)c1cn2c3c(c(NCCc4c[nH]c5ccccc45)c(F)cc3c1=O)Oc1cc3ccccc3cc1-2 (centres unmarked) [compound 287]', 'µM', 1.75);

A: CN1CCCC1CCNC(=O)c1cn2c3c(c(NCC4CCN(C(=O)OC(C)(C)C)C4)c(F)cc3c1=O)Oc1cc3ccccc3cc1-2 (centres unmarked) [compound 441]
B: CN1CCCC1CCNC(=O)c1cn2c3c(c(NC[C@H]4CCCO4)c(F)cc3c1=O)Oc1cc3ccccc3cc1-2 (some centres unmarked) [compound 38]
C: CN1CCCC1CCNC(=O)c1cn2c3c(c(N4CC[C@H](N)C4)c(N)cc3c1=O)Oc1cc3ccccc3cc1-2 (some centres unmarked) [compound 526]
D: CN(C)CCCCNC(=O)c1cn2c3cc4c(cc3oc3c(N5CC[C@H](N)C5)c(F)cc(c1=O)c32)c(=O)c1ccccc14 [compound 580]
E: O=C(CNCCN1CCCC1)N[C@@H]1CCN(c2c(F)cc3c(=O)c(C(=O)N4CCOCC4)cn4c3c2Oc2cc3c(cc2-4)oc2ccccc23)C1 [compound 180]
IN: Reorder the items by IC50, least to greatest. Order the labels as requested and give them as your answer.
OUT: D, C, A, E, B
